Molecular target: HLA-DRB1*0701 (human)
Experiment: competition binding
Settings: modification not given
pIC50: −log10 of the molar value.
reportedProperty: pIC50

Below are worked cases with known answers.
INSERT INTO results (binder, datavalue) VALUES
  ('TSVSRPGRGEPRFIA [p3]', 5.16),
  ('CDVGSDWRFLRGYHQ [p19]', 6.47),
  ('APWIEQEGPEYWDGE [p10]', 4.10),
  ('AAVVVPSGQEQRYTC [p47]', 4.37),
  ('RKVKAHSQTHRVDLG [p12]', 6.31),
  ('IAVGYVDDTQFVRFD [p5]', 5.51);

(P) HSMRYFFTSVSRPGR [p1*]
(Q) HKWEAAHVAEQLRAY [p30]
(R) KPLTLRWEPSSQPTI [p50*]
(S) KDYIALKEDLRSWTA [p25]
Query block: # sort list by recorded pIC50, greatest to least As an answer, provide the labels arranged in the order called for.
Result block: P, R, Q, S
(P: 7.42, R: 7.01, Q: 6.40, S: 5.53)

(1) RSWTAADMAAQTTKH [p28]
(2) TELVETRPAGDGTFQ [p44]
(3) PRFIAVGYVDDTQFV [p4]
Query block: Would you mind ranking these binders by ascending pIC50? // rank by listing labels in the order requested
Result block: 1, 2, 3
(1: 4.89, 2: 5.66, 3: 6.07)
